src = paper PMC10250233

# System tested: CST (CTC1-STN1-TEN1) (human, UniProt Q2NKJ3;Q9H668;Q86WV5 1-1217;1-368;1-123)
# Sequence (Q2NKJ3 whole entry, chain 1 of 3): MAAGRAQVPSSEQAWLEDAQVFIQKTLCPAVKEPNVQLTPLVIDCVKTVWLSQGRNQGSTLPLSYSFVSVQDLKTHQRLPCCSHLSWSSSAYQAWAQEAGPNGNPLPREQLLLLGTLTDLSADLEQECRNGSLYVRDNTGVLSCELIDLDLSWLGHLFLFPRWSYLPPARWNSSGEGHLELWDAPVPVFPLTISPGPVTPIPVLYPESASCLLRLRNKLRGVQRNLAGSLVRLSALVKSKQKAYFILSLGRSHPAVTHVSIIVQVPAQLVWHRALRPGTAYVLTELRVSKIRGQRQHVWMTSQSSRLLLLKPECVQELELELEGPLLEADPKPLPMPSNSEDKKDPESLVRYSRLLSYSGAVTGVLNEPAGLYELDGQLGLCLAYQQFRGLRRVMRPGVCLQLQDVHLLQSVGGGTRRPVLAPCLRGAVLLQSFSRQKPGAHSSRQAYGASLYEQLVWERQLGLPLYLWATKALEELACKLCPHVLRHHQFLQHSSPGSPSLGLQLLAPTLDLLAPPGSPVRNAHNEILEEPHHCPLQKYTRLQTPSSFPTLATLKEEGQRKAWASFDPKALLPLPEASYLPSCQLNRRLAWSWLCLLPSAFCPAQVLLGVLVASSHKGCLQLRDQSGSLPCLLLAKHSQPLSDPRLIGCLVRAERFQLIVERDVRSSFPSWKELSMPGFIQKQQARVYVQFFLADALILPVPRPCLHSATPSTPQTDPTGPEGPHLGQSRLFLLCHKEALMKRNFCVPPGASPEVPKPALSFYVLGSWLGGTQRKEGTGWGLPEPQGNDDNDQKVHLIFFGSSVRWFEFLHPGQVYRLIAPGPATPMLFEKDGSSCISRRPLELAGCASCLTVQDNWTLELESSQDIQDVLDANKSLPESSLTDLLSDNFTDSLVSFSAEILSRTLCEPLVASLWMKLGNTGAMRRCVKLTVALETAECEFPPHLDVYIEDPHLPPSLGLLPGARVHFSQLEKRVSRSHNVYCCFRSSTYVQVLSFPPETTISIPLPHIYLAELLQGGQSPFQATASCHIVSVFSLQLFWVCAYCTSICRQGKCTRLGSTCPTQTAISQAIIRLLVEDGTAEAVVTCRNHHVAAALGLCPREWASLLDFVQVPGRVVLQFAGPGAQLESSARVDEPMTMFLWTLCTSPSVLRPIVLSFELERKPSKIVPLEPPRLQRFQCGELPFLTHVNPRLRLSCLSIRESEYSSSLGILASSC
# Sequence (Q9H668 whole entry, chain 2 of 3): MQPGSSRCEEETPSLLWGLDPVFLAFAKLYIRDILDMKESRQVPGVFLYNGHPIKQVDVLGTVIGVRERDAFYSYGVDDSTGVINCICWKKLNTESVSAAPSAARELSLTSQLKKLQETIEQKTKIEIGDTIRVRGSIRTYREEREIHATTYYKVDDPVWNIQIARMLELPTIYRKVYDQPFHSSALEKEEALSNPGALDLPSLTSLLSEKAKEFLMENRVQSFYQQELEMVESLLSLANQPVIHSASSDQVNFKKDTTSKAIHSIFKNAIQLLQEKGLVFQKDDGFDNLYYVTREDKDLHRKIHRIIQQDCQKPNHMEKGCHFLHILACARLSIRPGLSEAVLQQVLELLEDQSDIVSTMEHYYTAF
# Sequence (Q86WV5 whole entry, chain 3 of 3): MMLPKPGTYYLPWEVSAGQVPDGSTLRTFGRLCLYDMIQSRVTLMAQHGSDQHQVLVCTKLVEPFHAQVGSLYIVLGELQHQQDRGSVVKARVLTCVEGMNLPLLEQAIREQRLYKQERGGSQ
# Protocol summary: fluorescence anisotropy; 200 mM NaCl; FA: 200 mM NaCl, KCl or LiCl, 20 mM HEPES pH 7.4, 1 mM DTT, 22-25 C, 375 or 750 pM oligo, Kd,app +/- SEM; EMSA: 20 mM HEPES pH 7.4, 200 mM KCl, 1 nM 32P oligo
# Experimental parameters: protein: recombinant; tags: 2xFLAG N-term on CTC1; 6xHis N-term on STN1 and TEN1; copies: 1;1;1; label: 5' fluorescein; intramolecular G4 in middle; linear in LiCl
Parameter: Kd (nM)
Output spec: scalar in nM, unitless text.

Memo: AGTGTGAGTTAGGGTTAGGGTTAGGGTTAGGGTGAGTGTG (structured_DNA) [Tel40 Middle G4] , reported Kd: 1.04
